Hey, just so you know, these numbers are from the nanobody polyreactivity screen of Harvey et al. (2022).

Assay: yeast display, Sf9 membrane polyspecificity reagent, FACS + sequencing; frameworks hold sequencing errors

>  <Polymer sequence>
QVQLVESGGGLVQAGGSLRLSCAASGSTFPAYTMGWYRQAPGKERELVAAINVSSGGSTYYADSVKGRFTISRDNAKNTVYLQRNSLKPEDTAVYYCATHGYVAHPYYYPYYYWGQGTQVTVSS

>  <polyreactivity (PSR sort gate)>
low polyreactivity

$$$$
>  <Polymer sequence>
QVQLVESGGGLVQAGGSLRLSCAASGRTFLTNAMGWYRQAPGKERELVAAITSSGGSTYYADSVKGRFTISRDNAKNTVYLLMNSLKPEDTAVYYCNKKSALYRRYDYWGQGTQVTVSS

>  <polyreactivity (PSR sort gate)>
low polyreactivity

$$$$

###

Experiment: yeast display, Sf9 membrane polyspecificity reagent, FACS + sequencing; frameworks hold sequencing errors
Readout type: polyreactivity (PSR sort gate)

>  <Polymer sequence>
QVQLVESGGGLVQAGGSLRLSCAASGITFGYYAMGWYRQAPGKERENVAAITRRGGSTYYADSVKGRFTISRDNAKNTVYLQMNSLKPEDTAVYYCAADSYRYWFIEDNYWGQGTQVTVSS

>  <Result value>
high polyreactivity

$$$$
>  <Polymer sequence>
QVQLVESGGGLVQAGGSLGLSCAASGSTFAGNTMGWYRQAPGKERELVATITRGDSTNYADSVKGRFTISRDNAKNTVYLQMNSLIPEDTAVYYCAAVGRRRTTVGRYVRMDYWGQGTQVTVSS

>  <Result value>
low polyreactivity

$$$$
>  <Polymer sequence>
QVQLVEAGGGLVQAGGSLRLSCAASGLIIAKYAMGWYRQAPGKERELVAGITSGGGTSYADSVKGRFTISRDNAKNTVYLQMNSLKPEDTAVNYCNAVVVGWFYQYDYWGQGTQVTVSS

>  <Result value>
low polyreactivity

$$$$
>  <Polymer sequence>
QVQLVESGGGLVQAGGRLRLSCPASGSIFGGYAMGWYRQAPGKERELVAGITRSGGSTYYADSVKGRFTISRYNAKNTVYFQMNSLKPEDTAVYYCAVEIQFYRSPRKVRSYDYWGQGTQVTVSS

>  <Result value>
low polyreactivity

$$$$
>  <Polymer sequence>
QVQLVESGGGLVQAGGSLRLSCAASGFTFKTYVMGWYRQAPGKERELVAAISRRGGSTHYADSVKGRFTISRDNAKNTVYLQMNSLKPEVTAVYYCAARHPFAGTVWGVVSYDYWGQGTLVTVSS

>  <Result value>
high polyreactivity

$$$$
>  <Polymer sequence>
QGQLGESGGGLVQAGGSLRLSCAASGRIFNCYGMGWYRQAPGKERELVATISKSSDITYYADSVKGRFTISRDIAKNNVYLQMNSLRPEDTAVYYCAAKVRQWRQGSYSSQYDYWGQGTQVTVSS

>  <Result value>
high polyreactivity

$$$$
>  <Polymer sequence>
QVQLEESGARIVQAGGSLRLSCAASGITLAGYVMGWYRQAPGKERELVADISSSGDSTYYADSVNGRFTISRDNAKNTVYLQMNSLKPEDTAVYYCAAEEIIPLIYKGYPFDYWGQATQVTVSS

>  <Result value>
low polyreactivity

$$$$
>  <Polymer sequence>
QVQHVESGGGLVQAGGSLRLSCAASGFTFSKYGMGWYRQAPGKERELVAAISGSGGNTYYADSVKGRFTISRDNAKNTVYLQMNSLKPEDTAVYYCNAEGWRYYYWYHEYGYWGQGTQVTVSS

>  <Result value>
low polyreactivity

$$$$
>  <Polymer sequence>
QVQLVESGGGLVQAGGSLRLSCAASGRIIDYYTMGWDRQAPGKERELVATITIVGITNYADSVKGRFTISRDNAKNTVYLQMNSLKPEDTAVYYCAADRADFFVIRTIDPYDYWGQGTQVTVSS

>  <Result value>
low polyreactivity

$$$$
>  <Polymer sequence>
QVQLVESGGGLVQAGGSLRLSCAASGRIFSSYAMGWYRQAPGKERELVARISYSGGSTYYADSVKGRFTISRDNAKNTVYLQMNSLKPEDTAVYYCNARYYGYGAGYRPYDYWGQGTQVTVSS

>  <Result value>
high polyreactivity

$$$$
>  <Polymer sequence>
QVQLVESGGGLVQAGGSLRLICAASGSIFGDNAMGWYRQAPGKERELVARISSGGNTYYADSVKGRFTISRDNAKNTVYLQMNSLKPEDTAVYYCNVYRYDGDYWGQGTQVTVSS

>  <Result value>
high polyreactivity

$$$$

###

Assay: yeast display, Sf9 membrane polyspecificity reagent, FACS + sequencing; frameworks hold sequencing errors
Readout type: polyreactivity (PSR sort gate)

>  <Polymer sequence>
QVQIVESGGGLVQAGGSLRLTCAASGFIFSRYAMGWYRQAPAKERELVAAITSGGRTNYADSVKGRFTISRDNAKNTVYLQMNRLKPEDTAVYYCSGAFYPFWPRYTSDYWGQGTQVTVSS

>  <Result value>
high polyreactivity

$$$$
>  <Polymer sequence>
QVQLVESGGGLVQAGGSLRLSCAASGIIFYNKAMGWYRQAPGKERELVAAITWSDGSTYYADSVKGRFTISRDNAKTTVYLQMNSMKPEDTAVYYCARRSGDERRDGDYWGQGTQVTVSS

>  <Result value>
low polyreactivity

$$$$
>  <Polymer sequence>
QVHLVESGGGLVQAGGSLRLSCAASGRIFVGYAMGWSRQAPGKERELVAASTSGGITNYADSVKGRFTISRDNAKNTVYIQMTSLKPEATAVYYCNVKRRVSGYYGYKDYYWGQGTQVTVSS

>  <Result value>
high polyreactivity

$$$$
>  <Polymer sequence>
QVQLVESGGRLVQAGGSHRLSCAASGRTFNVYAMGWYRQAPGKERELVASISSSDTTNYADSVKGRFTISRDNAKNTVYLQMNSLKPEDTAVYYCAADYTPDLLSKVDYCGQGTQVTVSS

>  <Result value>
low polyreactivity

$$$$
>  <Polymer sequence>
QVQLVESGGGLVQAGGSLRLSCAASGRTFGSYAMGWNRQAPGKERELVAAISSSGGRTYYADSVKGRFTISRDNAKNTVYLQMNSLKPEDTGVYYCNADVQWNIWEYDYWGQGTQVTVSS

>  <Result value>
high polyreactivity

$$$$

###

Assay: yeast display, Sf9 membrane polyspecificity reagent, FACS + sequencing; frameworks hold sequencing errors

>  <Polymer sequence>
QVQLVESGGGLVQAGGSLRLSCAASGRPFASYALGWYREAPGKERELVAVITRGVRTYYADSVKGRFTISRDNAKNTVYLQMNSLKPEDTAVYSCAKERYNANYDTSLYDYWGQGTQVTVSS

>  <polyreactivity (PSR sort gate)>
low polyreactivity

$$$$
>  <Polymer sequence>
QVQLVESGGGLVQAGGSLRLSCAASGSTFYYYAMGWYRQAPGKERELVATITSTGRTNYADSVKGRFTISRDNAKNTVYLQMNSLKPEDTAVYYCAALRRIQRPEYGYWGQGTQVTVSS

>  <polyreactivity (PSR sort gate)>
low polyreactivity

$$$$
>  <Polymer sequence>
QVQLVESGGGLVQAGGSLRLSCAASGRIFFGYAMGWYRPAPGKEREFVAAINWIGGRTYYAASVKGRFTISRDNAKNTVYLQMNSLKPEDTAVYYCAKEVSPYWTFDYWGQGTQVTVSS

>  <polyreactivity (PSR sort gate)>
low polyreactivity

$$$$
>  <Polymer sequence>
QVQLVESGGGLVQAGGSLRLSCAASGRTFVYNAMGWYRQAPGKERELVAAIDGGGDRTYYADSVKGRFTISRDNAKNTVYLQMTSLNPEDTAVYYCARDPGDTYYYSYPEGDYWGQGTQVTVSS

>  <polyreactivity (PSR sort gate)>
low polyreactivity

$$$$
>  <Polymer sequence>
QVQLVESGGGLVQAGGSLRLSCAASGSTFYYYAMGWYRQAPGKERELVAAIDRDDRTNYADSVKGRFTISRDNAKNTVYLQMNSLKPEDTAVYYCAAVEIYEYDYWGQGTQVTVSS

>  <polyreactivity (PSR sort gate)>
low polyreactivity

$$$$

###

Assay: yeast display, Sf9 membrane polyspecificity reagent, FACS + sequencing; frameworks hold sequencing errors

>  <Polymer sequence>
QVQLVESGGGLVQAGGSLRLSCADSGSTYGGYAMGWYRQAPGKERELVAAISQSGGRTYYADSVKGRFTISRDNAKITVYFQMNSLKPEDTAVYYCAAYRTGYGRFTLDYWGQGSQVTVSS

>  <polyreactivity (PSR sort gate)>
high polyreactivity

$$$$
>  <Polymer sequence>
QVQLVESGGGLVQAGGSLRLSCAASGSTFVPNAMGGSRPAPGKERELVAAISYSGGTTYYADSVKGRFTISRDNAKNTVYLQMNSLKPEDTAVYYCAARSKGAAAILDDYWGQGTQVTVSS

>  <polyreactivity (PSR sort gate)>
low polyreactivity

$$$$
>  <Polymer sequence>
QVQLVESGGGLVQAGGSLRLSCAASGSTFQPYAMGWYRQAPGKERELVAAISWSGVSTSYADSVKGRFTISRDNAKNTVYLQMNSLKPEETAVYYPFYEYYYWVQGTQVTVSS

>  <polyreactivity (PSR sort gate)>
low polyreactivity

$$$$
>  <Polymer sequence>
QVQLVESGGGLVQAGGSLRLRCAASGSIMGRYAMGWYRQAPGKERELVAAITSSGTRTYYPDSVKGRFTISRDNANNTVYLQMNSLKPEDTAVYYCAAYLAITRSYYIVPYDYWGQGTQVTVSS

>  <polyreactivity (PSR sort gate)>
high polyreactivity

$$$$
>  <Polymer sequence>
QLQLEESGGGLVQAGGSLRLSCAASGFIFYSNAMGWYRKAPGKERELVASIPGDGGTTYYADSVKGRFTISRDNAKNTVYLQMNSLKPEDTAFYYCAKDYIYRGYYTDFRYEDYEYWGQGTQVTVSS

>  <polyreactivity (PSR sort gate)>
low polyreactivity

$$$$
>  <Polymer sequence>
QVQLVESGGGLVQAGGSLRLSCAASGLTFSTYAMGWYRQAPGKERELVATITYSGSSTYADSVKGRFTIARDNAKNTVYLQMNSLKPEDTAVYFCAAVTYHGNPSEYFPDTVGFYYWGQGTQVTVSS

>  <polyreactivity (PSR sort gate)>
low polyreactivity

$$$$
>  <Polymer sequence>
QVQLVESGGGLVQAGGSLRLSCAASGRIFPYYAMGWYRQAPGKERELVAGISYSGTSTYYADSVKGRFTISRDNAKNTVYLQMNSLKPEDTAVYYCATTSWRYGYDYWGQGTQVTVSS

>  <polyreactivity (PSR sort gate)>
high polyreactivity

$$$$
>  <Polymer sequence>
QVKLVESGRGLVQAGGSLRLSCAASGSIFAQNVMGWYRQAPGKERELVAAISYSGGTTYYADSVKGRFTISRDNAQNTVYLQMNSLKPEDTAVYYCAAEFGVYEYDYWGQGTQVTVSS

>  <polyreactivity (PSR sort gate)>
low polyreactivity

$$$$
>  <Polymer sequence>
QVQLVESGGGLFQAGRSLRLICAASGRIFNQYPMGWSRQAPGKETELVAAIRRSSDSTYYADSVKGRFTISRDNAKNTVYLQMNSLTPEDSAVYYCATDGYRRWVWMEYWGQGTQVTVSS

>  <polyreactivity (PSR sort gate)>
low polyreactivity

$$$$
>  <Polymer sequence>
QVQLVESGGGLVQAGGSLRLSCAASGSTFYPYAMGWYRQAPGKERELVAAISSGGSTSYADSVKGRFTISRENAKNTVYLQMNSLKPEDTAVYYCNASSPVAVPVYDYDYWGQGTQVTVSS

>  <polyreactivity (PSR sort gate)>
low polyreactivity

$$$$
>  <Polymer sequence>
QVQLEESGGGLVQAGGSLRLSCAASGGTFGQYTMGWYRQAPGKERELVAAISTRGGSTNYADSVKGRFTISRDNAKNTVYLQMNSLKPEDTAVYYCAAKDKGRYYENVGRRGLDYWGQGTQVTVSS

>  <polyreactivity (PSR sort gate)>
high polyreactivity

$$$$
>  <Polymer sequence>
QVQLVESGGGLVQAGGSLRLSCAASGRIFRENAMGWYRQAPGKERELVASNSLSGTSTYYADSVKGRFTISRDNAKNTVYLQMNSLKPEDTAVYYCNGERLSTDPYDRNYWGQGTQVTVSS

>  <polyreactivity (PSR sort gate)>
low polyreactivity

$$$$
>  <Polymer sequence>
QVQLVESGGGLVQAGGSLRLSCAASGFIFRRYTMGWYTQAPGKERELVATITRSVNTDYADSVKGRFTISRDNAKNTVYLQMNSLKPEDTAVYYCAARKYYYFPVAYDYWGQGTQVTVSS

>  <polyreactivity (PSR sort gate)>
high polyreactivity

$$$$
>  <Polymer sequence>
QVQLVESGGGLVQAGGSLRLSCAASGSTLYVNAMGLYRQAPGKERELVAAISWRGDRTYYADSVKGRFTISRDNAKNNVYLQMNSLKPEDTAVYYCAKDYWWKGTTLYYNLDYWGQGTQVTVSS

>  <polyreactivity (PSR sort gate)>
high polyreactivity

$$$$
>  <Polymer sequence>
QVQLVESGGGLVQAGGSLRLSCAASGRTIRLYGMGSYRQAPGKERELVAAITWSGGRTYYADSVKGRFTISRDNEKNTFYLQMNSLKPEDSAVYYCAAGNSSYGKPKYYYWGQGTQVTVSS

>  <polyreactivity (PSR sort gate)>
high polyreactivity

$$$$
>  <Polymer sequence>
QFQPVESGGGLVQAGGSLRLSCAASGFTFYRYAMGWYRPAHGKERELVAAITFSGSSTYYADSVKGRFTISRDNAKNTVYLQMNSLKEEDTAVYYCAAGGSFWYFSPRYGYWGQGTQVTVSS

>  <polyreactivity (PSR sort gate)>
high polyreactivity

$$$$
>  <Polymer sequence>
QVQLVESGGGLVQAGGSLRLSCAASGRIFFLNTMGWYRQAPGTERELVAAITRGGSTYYADSVKGRFTISRDNAKNTVYLQMNSLKPEDTAVYYCAADVYGGIGYDYWGQGTQVTVSS

>  <polyreactivity (PSR sort gate)>
low polyreactivity

$$$$
>  <Polymer sequence>
QVQLVESGGGLVQAGGSLRLSCAASGSIFPGFAMGWYRQAPGKERELVAAISTSGGNTYYADSVKGRFTISRDNAKNTVYLQMNSLKPEDTAVYYCAVRHRLYTAGYDYWGQGTQVTVSS

>  <polyreactivity (PSR sort gate)>
low polyreactivity

$$$$
>  <Polymer sequence>
QVQLVESGGGLVQAGGSLRLSCAASGSTFRVNAMGWYRQAPGKERELVAAISYRGGSTYYADSVKGRFTISRDNAKNTVYLQMNNLKPEDTAVYYCNADLKRRTYGPDSYYWGQGTQVTVSS

>  <polyreactivity (PSR sort gate)>
high polyreactivity

$$$$
>  <Polymer sequence>
QVQLVESGGGLVPAGGSLRLRCAASGYIFRQNAMGWYRQAPGKERELVAVITARGGSTYYADSVKGRFTISRDNEKNTVYLQMNSLKPEDTAVYYCNARYYRRQYRGGAYWGQGTQVTVSS

>  <polyreactivity (PSR sort gate)>
low polyreactivity

$$$$
>  <Polymer sequence>
QVQLVESGGGLVQAGGSLRLSCAASGRIFYGYAMGWYRQAPGKDRELVATISRSGARTHYADSVKGRFTISRDNAKNTVYLQMNSLKQEDTAVYYCAADVYLSRYEKYGYWGQGTQVTVSS

>  <polyreactivity (PSR sort gate)>
high polyreactivity

$$$$
